Biological target: various mutants of kinase EGFR (BaF3 cell lines stably transfected with kinase) (Homo sapiens, UniProt P00533, T790M/C797S, form not given)
Construct: other: BaF3 cells stably transfected with EGFR Δ19Del/T790M/C797S; MTS, 48; other: BaF3 cell line stably transfected with EGFR Δ19Del/T790M/C7
Sequence (P00533 with tags, fused parts or gaps DEL746-750/T790M/C797S, form open): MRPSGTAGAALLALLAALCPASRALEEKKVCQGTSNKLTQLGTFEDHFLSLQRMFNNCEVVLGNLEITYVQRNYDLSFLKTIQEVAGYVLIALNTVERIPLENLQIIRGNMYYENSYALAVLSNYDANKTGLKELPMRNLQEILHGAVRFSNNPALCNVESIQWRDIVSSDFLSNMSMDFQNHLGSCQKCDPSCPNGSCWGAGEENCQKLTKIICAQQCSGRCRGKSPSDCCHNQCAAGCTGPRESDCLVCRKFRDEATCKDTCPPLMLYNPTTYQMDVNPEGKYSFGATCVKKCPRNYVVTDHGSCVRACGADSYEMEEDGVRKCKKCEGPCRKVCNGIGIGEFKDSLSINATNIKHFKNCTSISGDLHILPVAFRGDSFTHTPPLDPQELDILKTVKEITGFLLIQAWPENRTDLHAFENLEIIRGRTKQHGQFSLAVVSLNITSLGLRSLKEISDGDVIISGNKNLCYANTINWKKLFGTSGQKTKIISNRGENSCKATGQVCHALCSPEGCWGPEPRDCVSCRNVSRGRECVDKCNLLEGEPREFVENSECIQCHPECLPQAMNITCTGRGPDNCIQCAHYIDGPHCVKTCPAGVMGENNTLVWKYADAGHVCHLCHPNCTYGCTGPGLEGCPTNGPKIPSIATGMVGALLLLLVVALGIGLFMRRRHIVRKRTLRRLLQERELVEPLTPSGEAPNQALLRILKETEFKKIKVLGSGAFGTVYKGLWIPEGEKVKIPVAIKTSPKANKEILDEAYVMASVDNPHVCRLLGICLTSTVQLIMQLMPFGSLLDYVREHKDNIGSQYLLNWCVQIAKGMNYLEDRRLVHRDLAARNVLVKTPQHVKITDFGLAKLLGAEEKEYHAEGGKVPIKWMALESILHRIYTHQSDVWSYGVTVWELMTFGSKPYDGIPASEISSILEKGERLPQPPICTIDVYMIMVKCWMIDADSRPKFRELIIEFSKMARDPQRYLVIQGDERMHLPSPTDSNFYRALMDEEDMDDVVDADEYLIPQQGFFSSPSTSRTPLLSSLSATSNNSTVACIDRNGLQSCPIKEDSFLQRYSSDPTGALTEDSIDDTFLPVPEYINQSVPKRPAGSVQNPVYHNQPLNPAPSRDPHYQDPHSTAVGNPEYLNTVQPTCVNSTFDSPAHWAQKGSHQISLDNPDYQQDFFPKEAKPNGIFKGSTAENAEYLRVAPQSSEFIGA
Assay: Growth inhibitory activity of compounds on BaF3 cell lines stably transfected with kinase (MTS, 48 h)
Format: cell-based
Settings: BaF3 cells stably transfected with EGFR Δ19Del/T790M/C797S, read-out: IC50, growth inhibition, Δ19Del/T790M/C797S
ENDPOINT_NAME: IC50

>  <MOLECULE>
CN1CCN(c2ccc(Nc3ncc(Br)c(Nc4ccc5nccnc5c4N(C)S(C)(=O)=O)n3)cn2)CC1

>  <IC50>
≤ 0.05 µM

$$$$
>  <MOLECULE>
CCc1cc(Nc2ncc(Br)c(Nc3ccc4nccnc4c3N(C)S(=O)(=O)CC)n2)c(OC(F)(F)F)cc1N1CCC(N2CCN(C)CC2)CC1

>  <IC50>
≤ 0.05 µM

$$$$

Alright, here's another molecule for you.
// returns reported IC50 for input CCc1cc(Nc2ncc(Cl)c(Nc3ccc4nccnc4c3N(C)S(=O)(=O)CC)n2)c(OC)cc1N1CCC(N(C)C)C1 (stereo not drawn) ≤ 0.05 µM

###

Catalogue of compounds with associated IC50
Biological target: various mutants of kinase EGFR (BaF3 cell lines stably transfected with kinase) (Homo sapiens, UniProt P00533, T790M, form not given)
Construct: other: BaF3 cells stably transfected with EGFR Δ19Del/T790M; MTS, 48 h; other: BaF3 cell line stably transfected with EGFR Δ19Del/T790M; MTS, 48
Sequence (P00533 with tags, fused parts or gaps DEL746-750/T790M, form open): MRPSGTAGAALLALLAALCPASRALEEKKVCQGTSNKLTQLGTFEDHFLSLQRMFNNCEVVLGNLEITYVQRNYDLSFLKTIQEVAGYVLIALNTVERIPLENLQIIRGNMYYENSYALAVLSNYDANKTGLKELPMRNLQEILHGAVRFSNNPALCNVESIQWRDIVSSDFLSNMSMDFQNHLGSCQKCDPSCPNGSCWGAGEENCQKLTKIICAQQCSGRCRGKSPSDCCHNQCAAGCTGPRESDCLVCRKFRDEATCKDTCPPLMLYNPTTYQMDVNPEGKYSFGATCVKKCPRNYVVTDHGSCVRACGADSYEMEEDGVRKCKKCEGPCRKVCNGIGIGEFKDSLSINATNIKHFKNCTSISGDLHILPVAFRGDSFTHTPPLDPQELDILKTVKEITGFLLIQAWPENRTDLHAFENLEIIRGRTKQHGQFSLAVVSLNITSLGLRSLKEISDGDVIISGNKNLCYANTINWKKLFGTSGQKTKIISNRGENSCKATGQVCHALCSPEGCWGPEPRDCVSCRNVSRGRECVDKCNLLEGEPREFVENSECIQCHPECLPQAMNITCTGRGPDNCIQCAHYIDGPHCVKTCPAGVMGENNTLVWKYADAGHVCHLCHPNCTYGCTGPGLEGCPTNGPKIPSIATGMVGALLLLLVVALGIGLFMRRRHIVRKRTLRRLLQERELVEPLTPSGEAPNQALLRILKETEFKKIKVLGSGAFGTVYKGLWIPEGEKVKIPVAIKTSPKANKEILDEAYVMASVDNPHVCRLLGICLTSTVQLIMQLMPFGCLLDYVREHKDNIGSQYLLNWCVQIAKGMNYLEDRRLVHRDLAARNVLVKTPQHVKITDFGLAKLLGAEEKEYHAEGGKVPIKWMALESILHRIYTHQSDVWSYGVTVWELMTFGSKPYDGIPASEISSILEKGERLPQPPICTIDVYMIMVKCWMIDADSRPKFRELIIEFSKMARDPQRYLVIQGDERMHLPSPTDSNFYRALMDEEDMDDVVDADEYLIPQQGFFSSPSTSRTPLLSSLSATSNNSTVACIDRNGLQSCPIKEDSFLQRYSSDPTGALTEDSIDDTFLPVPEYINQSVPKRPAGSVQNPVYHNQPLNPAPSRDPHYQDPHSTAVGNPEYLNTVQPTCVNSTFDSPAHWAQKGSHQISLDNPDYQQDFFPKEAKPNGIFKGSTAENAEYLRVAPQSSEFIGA
Test: Growth inhibitory activity of compounds on BaF3 cell lines stably transfected with kinase (MTS, 48 h)
Format: cell-based
Conditions: BaF3 cells stably transfected with EGFR Δ19Del/T790M, read-out: IC50, growth inhibition, Δ19Del/T790M

Previously resolved entries follow.
>  <COMPOUND>
CCc1cc(Nc2ncc(Cl)c(Nc3ccc4nccnc4c3N(C)S(=O)(=O)C3CC3)n2)c(OC)cc1N1CCC(N2CCN(C)CC2)CC1

>  <REPORTED_VALUE>
≤ 50 nM

$$$$
>  <COMPOUND>
CCc1cc(Nc2ncc(C3CC3)c(Nc3ccc4nccnc4c3N(C)S(C)(=O)=O)n2)c(OC)nc1N1CCC(N2CCN(C)CC2)CC1

>  <REPORTED_VALUE>
50 to 500 nM

$$$$
>  <COMPOUND>
CCc1cc(Nc2ncc(C(F)(F)F)c(Nc3ccc4nccnc4c3N(C)S(C)(=O)=O)n2)c(OC(F)(F)F)cc1N1CCC(N2CCN(C)CC2)CC1

>  <REPORTED_VALUE>
50 to 500 nM

$$$$

// returns reported IC50 for input COc1cc(N2CCC(N3CCCC3)CC2)ccc1Nc1ncc(Br)c(Nc2ccc3nccnc3c2N(C)S(C)(=O)=O)n1 ≤ 50 nM

// returns reported IC50 for input COc1cc(N2CCC(N3CCN(C)CC3)CC2)ccc1Nc1ncc(Br)c(Nc2ccc3nccnc3c2N(C)S(=O)(=O)C(F)(F)F)n1 500 to 2500 nM

// returns reported IC50 for input COc1cc(N2CCC(N(C)C)C2)c(C)cc1Nc1ncc(C2CC2)c(Nc2ccc3nccnc3c2N(C)S(C)(=O)=O)n1 (stereo not drawn) 50 to 500 nM

###

Catalogue of compounds with associated pIC50
Target: various mutants of kinase EGFR (BaF3 cell lines stably transfected with kinase) (Homo sapiens, UniProt P00533, L858R/T790M)
Construct: expressed in transfected cells; host or cells: BaF3
Sequence (P00533 25-1210 T790M/L858R): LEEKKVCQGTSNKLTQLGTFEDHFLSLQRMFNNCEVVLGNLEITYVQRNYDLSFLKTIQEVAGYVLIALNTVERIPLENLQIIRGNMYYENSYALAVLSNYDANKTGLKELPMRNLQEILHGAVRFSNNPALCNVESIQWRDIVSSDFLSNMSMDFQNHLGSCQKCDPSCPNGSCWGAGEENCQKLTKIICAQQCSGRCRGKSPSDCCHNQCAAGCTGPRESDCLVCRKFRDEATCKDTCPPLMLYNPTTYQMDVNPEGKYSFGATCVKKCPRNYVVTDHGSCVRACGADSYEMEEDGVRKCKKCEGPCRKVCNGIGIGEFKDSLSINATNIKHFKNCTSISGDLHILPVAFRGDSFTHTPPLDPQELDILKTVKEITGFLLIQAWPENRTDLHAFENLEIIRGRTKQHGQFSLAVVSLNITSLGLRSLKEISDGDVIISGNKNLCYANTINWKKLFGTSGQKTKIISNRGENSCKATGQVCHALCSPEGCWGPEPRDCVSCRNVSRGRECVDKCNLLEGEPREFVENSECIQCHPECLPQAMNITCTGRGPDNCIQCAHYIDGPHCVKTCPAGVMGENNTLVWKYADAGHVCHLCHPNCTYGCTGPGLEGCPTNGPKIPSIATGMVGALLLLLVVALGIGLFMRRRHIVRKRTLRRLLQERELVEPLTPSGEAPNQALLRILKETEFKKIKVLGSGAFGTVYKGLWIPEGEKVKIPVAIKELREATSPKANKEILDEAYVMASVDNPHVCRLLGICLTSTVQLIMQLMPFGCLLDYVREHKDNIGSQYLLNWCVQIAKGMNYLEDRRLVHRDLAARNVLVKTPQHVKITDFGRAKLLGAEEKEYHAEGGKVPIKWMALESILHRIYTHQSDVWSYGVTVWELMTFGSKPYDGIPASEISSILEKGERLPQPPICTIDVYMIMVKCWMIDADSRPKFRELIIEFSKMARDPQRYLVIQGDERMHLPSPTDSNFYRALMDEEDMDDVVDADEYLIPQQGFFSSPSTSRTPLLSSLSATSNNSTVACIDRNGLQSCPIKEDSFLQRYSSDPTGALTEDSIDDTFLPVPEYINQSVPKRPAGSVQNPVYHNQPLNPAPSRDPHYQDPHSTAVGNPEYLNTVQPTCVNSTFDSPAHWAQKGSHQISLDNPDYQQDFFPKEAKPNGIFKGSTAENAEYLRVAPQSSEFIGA
Experiment: Growth inhibitory activity of compounds on BaF3 cell lines stably transfected with kinase (MTS, 48 h)
Assay type: cell-based
Conditions: BaF3 cell line stably transfected with EGFR L858R/T790M, read-out: L858R/ T790M growth inhibitory activity IC50
pIC50: −log10 of the molar value.

Previously resolved entries follow.
>  <ITEM_SMILES>
CCc1cc(Nc2nc(Nc3ccc4nccnc4c3N(C)S(C)(=O)=O)c3sccc3n2)c(OC(F)(F)F)cc1N1CCC(N2CCN(C)CC2)CC1

>  <pIC50>
6.30 to 7.30

$$$$
>  <ITEM_SMILES>
C=Cc1cc(Nc2nc(Nc3ccc4nccnc4c3N(C)S(C)(=O)=O)c3cc[nH]c3n2)c(OC(F)(F)F)cc1N1CCC(N2CCN(C)CC2)CC1

>  <pIC50>
≥ 7.30

$$$$

// returns reported pIC50 for input COc1cc(N2CCC(N3CCN(C)CC3)CC2)c(C2CC2)cc1Nc1ncc(Br)c(Nc2ccc3nccnc3c2NS(C)(=O)=O)n1 ≥ 7.30

// returns reported pIC50 for input CCc1cc(Nc2nc(Nc3ccc4nccnc4c3N(C)S(C)(=O)=O)c3[nH]ccc3n2)c(OC)cc1N1CCC(N(C)C)CC1 6.30 to 7.30

// returns reported pIC50 for input COc1cc(N2CCC(N3CCN(C)CC3)CC2)c(CC2CC2)cc1Nc1ncc(Br)c(Nc2ccc3nccnc3c2N(C2CC2)S(C)(=O)=O)n1 ≥ 7.30

// returns reported pIC50 for input CCn1ccc(Nc2ncc(Br)c(Nc3ccc4nccnc4c3N(C)S(C)(=O)=O)n2)n1 6.30 to 7.30

// returns reported pIC50 for input COc1cc(N2CCC(N3CCN(C)CC3)CC2)ccc1Nc1ncc(Br)c(Nc2ccc3nccnc3c2NS(=O)(=O)C(C)C)n1 6.30 to 7.30

###

Catalogue of molecules with associated IC50
Target: various mutants of kinase EGFR (BaF3 cell lines stably transfected with kinase) (Homo sapiens, UniProt P00533, L858R)
Construct: expressed in transfected cells; host or cells: BaF3
Sequence (P00533 25-1210 L858R): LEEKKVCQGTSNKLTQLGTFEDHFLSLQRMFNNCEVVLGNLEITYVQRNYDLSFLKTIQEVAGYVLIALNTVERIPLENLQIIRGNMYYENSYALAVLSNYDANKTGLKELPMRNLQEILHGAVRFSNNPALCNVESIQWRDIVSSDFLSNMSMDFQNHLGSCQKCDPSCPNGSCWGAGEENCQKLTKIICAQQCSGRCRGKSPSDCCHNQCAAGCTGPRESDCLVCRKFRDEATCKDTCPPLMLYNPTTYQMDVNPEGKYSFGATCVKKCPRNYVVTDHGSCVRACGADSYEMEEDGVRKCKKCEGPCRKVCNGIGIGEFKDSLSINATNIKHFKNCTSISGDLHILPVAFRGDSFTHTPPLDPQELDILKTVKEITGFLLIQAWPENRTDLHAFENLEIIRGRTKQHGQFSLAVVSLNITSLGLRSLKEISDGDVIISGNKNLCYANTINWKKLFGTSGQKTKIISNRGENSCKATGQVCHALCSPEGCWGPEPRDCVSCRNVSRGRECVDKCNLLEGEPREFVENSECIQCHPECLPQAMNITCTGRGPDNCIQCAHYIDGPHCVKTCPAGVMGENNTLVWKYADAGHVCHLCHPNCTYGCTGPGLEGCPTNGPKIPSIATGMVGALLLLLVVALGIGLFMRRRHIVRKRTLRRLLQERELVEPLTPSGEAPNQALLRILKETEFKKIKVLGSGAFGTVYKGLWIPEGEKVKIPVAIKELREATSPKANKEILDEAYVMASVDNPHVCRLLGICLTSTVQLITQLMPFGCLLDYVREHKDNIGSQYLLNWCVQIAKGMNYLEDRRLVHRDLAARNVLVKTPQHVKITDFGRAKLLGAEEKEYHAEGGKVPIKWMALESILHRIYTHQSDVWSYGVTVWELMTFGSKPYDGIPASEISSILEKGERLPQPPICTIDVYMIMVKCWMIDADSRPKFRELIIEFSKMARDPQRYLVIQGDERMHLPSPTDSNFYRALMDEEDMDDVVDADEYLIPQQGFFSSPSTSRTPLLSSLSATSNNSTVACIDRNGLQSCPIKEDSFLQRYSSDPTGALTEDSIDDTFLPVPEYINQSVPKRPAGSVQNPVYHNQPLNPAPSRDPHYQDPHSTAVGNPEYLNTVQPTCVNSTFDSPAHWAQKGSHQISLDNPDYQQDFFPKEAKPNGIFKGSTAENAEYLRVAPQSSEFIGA
Assay: Growth inhibitory activity of compounds on BaF3 cell lines stably transfected with kinase (MTS, 48 h)
Assay type: cell-based
Conditions: BaF3 cell line stably transfected with EGFR L858R, read-out: L858R growth inhibitory activity IC50

Previously resolved entries follow.
>  <ITEM_SMILES>
CCc1cc(Nc2ncc(Br)c(Nc3ccc4nccnc4c3N(C)S(C)(=O)=O)n2)c(OC)cc1C(=O)N1CCC(N2CCN(C)CC2)CC1

>  <IC50>
50 to 500 nM

$$$$
>  <ITEM_SMILES>
COc1cc(N2CCC(N3CCN(C)CC3)CC2)ccc1Nc1nc(Nc2ccc3nccnc3c2N(C)S(C)(=O)=O)c2cc[nH]c2n1

>  <IC50>
500 to 2500 nM

$$$$
>  <ITEM_SMILES>
COc1cc(N2CCN(C)CC2)c(C)cc1Nc1nc(Nc2ccc3nccnc3c2N(C)S(C)(=O)=O)c2sccc2n1

>  <IC50>
500 to 2500 nM

$$$$
>  <ITEM_SMILES>
COc1ccc(N2CCC(O)CC2)cc1Nc1ncc(Cl)c(Nc2ccc3nccnc3c2N(C2CC2)S(C)(=O)=O)n1

>  <IC50>
≤ 50 nM

$$$$

// returns reported IC50 for input CCc1cc(Nc2ncc(CC)c(Nc3ccc4nccnc4c3N(C)S(C)(=O)=O)n2)c(OC)cc1N1CCN(C)CC1 ≤ 50 nM

// returns reported IC50 for input CCc1cc(Nc2ncc(C(C)C)c(Nc3ccc4nccnc4c3N(C)S(C)(=O)=O)n2)c(OC)nc1N1CCC(N2CCN(C)CC2)CC1 50 to 500 nM

###

Catalogue of molecules with associated IC50
Target: various mutants of kinase EGFR (BaF3 cell lines stably transfected with kinase) (Homo sapiens, UniProt P00533, L858R)
Construct: expressed in transfected cells; host or cells: BaF3
Experiment: Growth inhibitory activity of compounds on BaF3 cell lines stably transfected with kinase (MTS, 48 h)
Type: cell-based
Settings: BaF3 cell line stably transfected with EGFR L858R, read-out: L858R growth inhibitory activity IC50

>  <MOLECULE>
COc1cc(N2CCC(N3CCN(C)CC3)CC2)c(C2CC2)cc1Nc1ncc(Br)c(Nc2ccc3nccnc3c2NS(C)(=O)=O)n1 [Compound I-407]

>  <IC50>
≤ 50 nM

$$$$
>  <MOLECULE>
CCc1cc(Nc2ncc(Br)c(Nc3ccc4nccnc4c3NS(C)(=O)=O)n2)c(OC)cc1N1CCC(N(C)C)CC1 [Compound I-410]

>  <IC50>
≤ 50 nM

$$$$
>  <MOLECULE>
CC(C)n1ccc(Nc2ncc(Br)c(Nc3ccc4nccnc4c3N(C)S(C)(=O)=O)n2)n1 [Compound I-384]

>  <IC50>
500 to 2500 nM

$$$$

Alright, here's another molecule for you.
// returns reported IC50 for input CN1CCN(C2CCN(c3c(F)cc(Nc4ncc(Br)c(Nc5ccc6nccnc6c5NS(C)(=O)=O)n4)cc3F)CC2)CC1 [Compound I-360] ≤ 50 nM

###

Target: various mutants of kinase EGFR (BaF3 cell lines stably transfected with kinase) (Homo sapiens, UniProt P00533, L858R)
Construct: expressed in transfected cells; host or cells: BaF3
Test: Growth inhibitory activity of compounds on BaF3 cell lines stably transfected with kinase (MTS, 48 h)
Format: cell-based
Conditions: BaF3 cell line stably transfected with EGFR L858R, read-out: L858R growth inhibitory activity IC50
pIC50: −log10 of the molar value.
ENDPOINT_NAME: pIC50

// returns reported pIC50 for input CCc1cc(Nc2nc(Nc3ccc4nccnc4c3N(C)S(C)(=O)=O)c3[nH]ccc3n2)c(OC(F)(F)F)cc1N1CCC(N2CCN(C)CC2)CC1 [II-1-22] 5.60 to 6.30

// returns reported pIC50 for input COc1cc(N2CCC(N3CCN(C)CC3)CC2)c(C)cc1Nc1ncc(Br)c(Nc2ccc3nccnc3c2NS(C)(=O)=O)n1 [Compound I-402] 6.30 to 7.30

// returns reported pIC50 for input COc1cc(N2CCC(N(C)C)CC2)c(C)cc1Nc1ncc(Br)c(Nc2ccc3nccnc3c2N(C2CC2)S(C)(=O)=O)n1 [Compound I-311] 6.30 to 7.30

// returns reported pIC50 for input COc1cc(N2CCC(N3CCN(C)CC3)CC2)c(C)cc1Nc1nc(Nc2ccc3nccnc3c2N(C)S(C)(=O)=O)c2ccsc2n1 [II-2-1] 5.60 to 6.30

// returns reported pIC50 for input COc1cc(N2CCC(N(C)C)C2)c(C)cc1Nc1nc(Nc2ccc3nccnc3c2N(C)S(C)(=O)=O)c2[nH]ccc2n1 (stereo not drawn) [II-1-35] 5.60 to 6.30

// returns reported pIC50 for input COc1ccc(N2CCC(C#N)CC2)cc1Nc1ncc(Br)c(Nc2ccc3nccnc3c2N(C)S(C)(=O)=O)n1 [Compound I-351] 6.30 to 7.30
